# target_or_test_system: human mAChR M4 (Homo sapiens, UniProt P08173)
# Construct: expressed in transfected cells
# Sequence (P08173 whole entry): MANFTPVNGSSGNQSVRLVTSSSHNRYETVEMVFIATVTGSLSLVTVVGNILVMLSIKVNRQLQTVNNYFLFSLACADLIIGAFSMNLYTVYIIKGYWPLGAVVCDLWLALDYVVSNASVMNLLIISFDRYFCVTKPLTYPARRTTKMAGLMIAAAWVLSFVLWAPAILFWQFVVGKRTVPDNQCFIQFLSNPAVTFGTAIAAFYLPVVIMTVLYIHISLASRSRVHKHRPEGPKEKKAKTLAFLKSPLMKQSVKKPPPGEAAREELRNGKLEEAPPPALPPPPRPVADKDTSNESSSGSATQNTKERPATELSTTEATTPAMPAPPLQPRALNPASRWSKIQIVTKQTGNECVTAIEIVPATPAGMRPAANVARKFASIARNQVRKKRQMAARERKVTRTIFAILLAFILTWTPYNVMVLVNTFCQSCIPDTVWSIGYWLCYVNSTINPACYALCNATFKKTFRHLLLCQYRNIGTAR
# test_summary: mAChR M4 cell-based functional assay (calcium mobilization, CHO-K1 hM4-Gqi5 cells)
# experimental_setup: CHO-K1, % ACh maximum at 30 μM; human M4
reported_property: Emax at 30 µM (%)

compound | Emax at 30 µM / %
Cc1nc(Cl)c(C)c(N2CCc3ncc(-c4ccc(N(C)C)nc4)cc3C2)n1 | 82

a. Cc1cc(C#N)cnc1N1CCc2ncc(-c3ccc(F)nc3)cc2C1
b. Cc1cc(C(=O)NC2CCCCC2)cnc1N1CCc2ncccc2C1
c. Cc1cc(C(=O)N2CC(C)C2)nnc1N1CCc2ncc(N3CCCn4nccc43)cc2C1
query: Hey, quick one: sort these by Emax at 30 µM, largest value first please. Output the labels ranked as instructed.
result: c, a, b
